Test system: Cryptococcus neoformans
Assay: Antifungal broth microdilution MIC (50% growth inhibition, 48 h)
Type: cell-based
Details: Cryptococcus neoformans, C. neoformans NR 41300; read-out: MIC
Catalogue of MIC readings, one per entry.
VALUE KIND: MIC (µg/mL)

molecule=Cc1nc(-c2ccc(-c3ccccc3)cc2)sc1-c1nnc(NCCN)o1 endpoint_unit=µg/mL readout_number=4
molecule="Cc1nc(-c2ccc(-c3ccccc3)cc2)sc1-c1nnc(N[C@@H]2CCCC[C@@H]2N)o1 (relative stereo)" endpoint_unit=µg/mL readout_number=1
molecule="OC(Cn1cncn1)(Cn1cncn1)c1ccc(F)cc1F [Fluconazole, reference compound]" endpoint_unit=µg/mL readout_number=1
molecule="C[C@@H]1[C@H](O)[C@@H](C)/C=C/C=C/C=C/C=C/C=C/C=C/C=C/[C@H](O[C@@H]2O[C@H](C)[C@@H](O)[C@H](N)[C@@H]2O)C[C@@H]2O[C@](O)(C[C@@H](O)C[C@@H](O)[C@H](O)CC[C@@H](O)C[C@@H](O)CC(=O)O[C@H]1C)C[C@H](O)[C@H]2C(=O)O [Amphotericin B, reference compound]" endpoint_unit=µg/mL readout_number=1

###

Tested on: Candida albicans
Assay: Antifungal broth microdilution MIC (50% growth inhibition) and MFC
Type: cell-based
Conditions: C. albicans SS5314 (wild-type)
VALUE KIND: MIC

compound="Cc1nc(-c2ccc(-c3ccccc3)cc2)sc1-c1nnc(N2CCC[C@@H]2C(N)=O)o1 [Compound 14]" value_kind=MIC result=">64 µg/mL"
compound="Cc1nc(-c2ccc(-c3ccccc3)cc2)sc1-c1nnc(NCCN(C)C)o1 [Compound 8]" value_kind=MIC result="16 µg/mL"
compound="Cc1nc(-c2ccc(-c3ccccc3)cc2)sc1-c1nnc(N[C@@H]2CCCC[C@H]2N)o1 (relative stereo) [Compound 16]" value_kind=MIC result="1 µg/mL"
compound="Cc1nc(-c2ccc(-c3ccccc3)cc2)sc1-c1nnc(N2CCC[C@@H]2CO)o1 [Compound 21]" value_kind=MIC result=">64 µg/mL"
compound="Cc1nc(-c2ccc(-c3ccccc3)cc2)sc1-c1nnc(N2CCC[C@H]2C(N)=O)o1 [Compound 13]" value_kind=MIC result=">64 µg/mL"
compound="Cc1nc(-c2ccc(-c3ccccc3)cc2)sc1-c1nnc(N2CCC[C@H]2CO)o1 [Compound 20]" value_kind=MIC result=">64 µg/mL"
compound="Cc1nc(-c2ccc(-c3ccccc3)cc2)sc1-c1nnc(NCC(=N)N)o1 [Compound 9]" value_kind=MIC result=">64 µg/mL"

###

Catalogue of MIC readings, one per entry.
System: Cryptococcus neoformans
Assay: Antifungal broth microdilution MIC (50% growth inhibition, 48 h)
Assay type: cell-based
Conditions: Cryptococcus neoformans, C. neoformans NR 41298; read-out: MIC
VALUE KIND: MIC (µg/mL)

compound="Cc1nc(-c2ccc(-c3ccccc3)cc2)sc1-c1nnc(N[C@@H]2CCCC[C@@H]2N)o1 (relative stereo) [Compound 17]" readout_number=1
compound="Cc1nc(-c2ccc(-c3ccccc3)cc2)sc1-c1nnc(NCCN)o1 [Compound 7]" readout_number=2
compound="C[C@@H]1[C@H](O)[C@@H](C)/C=C/C=C/C=C/C=C/C=C/C=C/C=C/[C@H](O[C@@H]2O[C@H](C)[C@@H](O)[C@H](N)[C@@H]2O)C[C@@H]2O[C@](O)(C[C@@H](O)C[C@@H](O)[C@H](O)CC[C@@H](O)C[C@@H](O)CC(=O)O[C@H]1C)C[C@H](O)[C@H]2C(=O)O [Amphotericin B, reference compound]" readout_number=1
compound="OC(Cn1cncn1)(Cn1cncn1)c1ccc(F)cc1F [Fluconazole, reference compound]" readout_number=2
